# test description: NCI Yeast Anticancer Drug Screen. Data for the sgs1 mgt1 strain (AID 161);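 also: 0% = growth of cultures given vehicle only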
# cond: S. cerevisiae sgs1 mgt1 strain, at 5.0 µM (retest, dose inferred, filed as 0.5), stronger effect = higher value
Compounds without any hit were thinned out: in the full panel of roughly 79,000, 15% have a hit.
Some molecules, each annotated with its measured growth inhibition.
Please reply with the bare figure in % and do not write the unit itself.

Task item: Fill in: growth inhibition of Nc1nc(N)c2cc(S(=O)c3ccc4ccccc4c3)ccc2n1 (stereo unspecified) is ___
Reply: 2

Task item: Fill in: growth inhibition of COC(=O)c1[nH]c(=O)c(C#N)c(C(=O)OC)c1C(=O)c1ccc2ccccc2c1 is ___
Reply: -1

Task item: Fill in: growth inhibition of CC(=O)O/C=C\COC(C)=O is ___
Reply: 3

Task item: Fill in: growth inhibition of COCCCNC(=O)SC is ___
Reply: 3

Task item: Fill in: growth inhibition of O=C(Nc1ccccc1)OCCc1ccc(Br)cc1 is ___
Reply: -1

Task item: Fill in: growth inhibition of CCC(CCCN(CC)CCc1ccccc1)OC(=O)c1cc(OC)c(OC)c(OC)c1 (stereo unspecified) is ___
Reply: -1

Task item: Fill in: growth inhibition of CCCCCC=C(c1cc(Br)cc(C(=O)O)c1O)c1cc(Br)cc(C(=O)O)c1O is ___
Reply: 0

Task item: Fill in: growth inhibition of CC(C)c1ccc(C(=O)OC2CCCCC2)cc1 is ___
Reply: 7

Task item: Fill in: growth inhibition of C=C(C)C(=O)OC1CC2=CC(CC3(C)OC3C3OC(=O)C(=C)C13)OC2=O (stereo unspecified) is ___
Reply: 4

Task item: Fill in: growth inhibition of C[n+]1c(/C=C/c2ccc([N+](=O)[O-])cc2)ccc2ccccc21 is ___
Reply: 2

Task item: Fill in: growth inhibition of CC(C)OC(=O)c1cc([N+](=O)[O-])cc([N+](=O)[O-])c1Sc1ncnc2nc[nH]c12 is ___
Reply: 44

Task item: Fill in: growth inhibition of CCOc1cc(/C=N/NC(=S)NC23CC4CC(CC(C4)C2)C3)ccc1O is ___
Reply: 0

Task item: Fill in: growth inhibition of O=C(O)CCSSCCCCCS(=O)O is ___
Reply: -1

Task item: Fill in: growth inhibition of Cc1cc(C)nc(/C=C/c2ccc(/C=C/c3cc(C)cc(C)n3)cc2)c1 is ___
Reply: 7

Task item: Fill in: growth inhibition of O=C(O)C(CS)Nc1c2ccccc2nc2ccccc12 (stereo unspecified) is ___
Reply: 11

Task item: Fill in: growth inhibition of Oc1c(Cl)c2ccccc2c2ccccc12 is ___
Reply: 1

Task item: Fill in: growth inhibition of Cc1ccc(I)c(C(C)(C)O)c1 is ___
Reply: 4

Task item: Fill in: growth inhibition of CC(C)(C)C1=NC(=S)SC2=NC(=O)C3(NN21)c1ccccc1-c1ccccc13 is ___
Reply: 5

Task item: Fill in: growth inhibition of CCOC1Oc2ccccc2-c2nc(SC)ncc21 (stereo unspecified) is ___
Reply: 18

Task item: Fill in: growth inhibition of O=C(NCCc1c(-c2ccccc2)[nH]c2ccccc12)C(F)(F)F is ___
Reply: 10

Task item: Fill in: growth inhibition of CN(C)c1ccc(N=Nc2cccc3ccccc23)cc1 is ___
Reply: 10

Task item: Fill in: growth inhibition of O=C(O)/C(=C\c1ccc(F)cc1)c1ccccc1 is ___
Reply: -4

###

# test description: NCI Yeast Anticancer Drug Screen. Data for the mlh1 rad18 strain (AID 175)
# cond: S. cerevisiae mlh1 rad18 strain growth inhibition; at 5.0 µM (retest, dose inferred, filed as 0.5); stronger effect = higher value
# Protocol: Growth inhibition of yeast strains with defined genetic alterations is measured as a screen for potential anti-cancer activity. Selected strains with alterations in DNA damage repair or cell cycle control were exposed to compounds and growth inhibition was measured relative to vehicle treated controls. The strain used in this assay is mlh1 rad18
The panel holds about 79,000 compounds, 15% with a hit somewhere; the sample as a whole holds those more often.
Some molecules, each annotated with its measured growth inhibition.
Please reply with the bare figure in % and do not write the unit itself.

Below, 7 molecules whose answers are already recorded.
CCN(CC)CCOc1ccc(/C(C#N)=C/c2ccc(C(F)(F)F)cc2)cc1: 38
C=C1CC(c2ccc(OCCCN3C(=O)c4ccccc4C3=O)c(OC)c2)OC1=O (stereo not drawn): 10
Cc1ccc(S(=O)(=O)Nc2ccc3c(c2)C(=O)c2ccccc2-3)cc1: 17
Cc1cc(N(CCC#N)CCC#N)ccc1/C(N=Nc1cccc([N+](=O)[O-])c1)=N/NC(=O)c1cc(Cl)ccc1O: 12
O=C1C(c2ccccc2)=S=C2C=CC=CN12: 19
Cc1ccc(C)c(N2C(=O)C(=O)C(c3nc4ccccc4o3)C(=O)C2=O)c1: 15
O=C(O)C(O)C(O)C(O)C(O)c1nc2ccccc2s1 (stereo not drawn): 9

# evaluate next
Task item: Fill in: growth inhibition of Cc1occc1C(=S)Nc1ccc(Cl)c(C(=O)OCC2CC2)c1 is ___
Reply: -2

###

# test description: NCI Yeast Anticancer Drug Screen. Data for the cln2 rad14 strain (AID 165);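 also: 0% = growth equal to vehicle treated cultures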
# cond: S. cerevisiae cln2 rad14 strain, at 50.0 µM (retest, dose inferred, filed as 5.0)
Compounds without any hit were thinned out: in the full panel of roughly 79,000, 15% have a hit. Active and inactive are the calls of the source. Rule as the data show it: active = growth inhibition above about 70%; inactive = the rest.
The reply should name one outcome from Y for active, N for inactive

Check out these entries, answers already filled in.
Cc1cc(N(CCC#N)CCC#N)ccc1/C(N=Nc1cccc([N+](=O)[O-])c1)=N/NC(=O)c1cc(Cl)ccc1O: N
CCOC(=O)/C(Cl)=C(\OCC)C(=O)OCC: N
CC(=O)Oc1cc2c(cc1OC(C)=O)OCC(c1ccc(C)cc1)C2 (stereo not drawn): Y
NS(=O)(=O)c1ccc(NC(=S)/N=C\C(C(=O)c2ccccc2)=C(\O)c2ccccc2)cc1: N
NNC(=O)c1c(SCc2ccccc2)nc2c3ccccc3ccn12: Y

Kindly review the next molecule as well.
Task item: What did the test return for Nc1ccc2ccccc2c1Cc1c(O)ccc2ccccc12 ?
Reply: Y

###

# test description: NCI Yeast Anticancer Drug Screen. Data for the bub3 strain (AID 167)
# cond: S. cerevisiae bub3 mutant strain, at 50.0 µM
This is part of a sample that, as a whole, favours compounds with a hit. Of some 79,000 tested, about 15% had one in any assay. The source made the active and inactive calls. Rule as the data show it: active = growth inhibition above about 70%; inactive = the rest.
The reply should name one outcome from T for active, F for inactive

Check out these entries, answers already filled in.
CCCc1cc(=O)oc2c3c(c4c(c12)OC(C)(C)C=C4)O[C@@H](C)[C@H](C)[C@H]3O: T
NC1=CC(=O)c2ccccc2C1=O: T

Task item: What did the test return for O=C(CNC(=O)C(CSCc1ccccc1)NC(=O)OCc1ccccc1)Oc1c(Cl)c(Cl)c(Cl)c(Cl)c1Cl (stereo unspecified) ?
Reply: F

Task item: What did the test return for Cc1cccc(Nc2c3c(nc4ccccc24)CCCCC3)c1 ?
Reply: F

Task item: What did the test return for N=C(/C(=C/c1ccccc1)c1ccccc1)c1ccccc1 ?
Reply: T

Task item: What did the test return for CC(C)C(C)OC(=O)Nc1cccc(O)c1 (stereo unspecified) ?
Reply: F

Task item: What did the test return for O=C(NCCc1c(-c2ccccc2)[nH]c2ccccc12)C(F)(F)F ?
Reply: T

Task item: What did the test return for COC1/C=C/OC2(C)Oc3c(C)c(O)c4c(c3C2=O)C(=O)C=C(NC(=O)/C(C)=C\C=C\C(C)C(OC=O)C(C)C(O)C(C)C(OC(C)=O)C1C)C4=O (stereo unspecified) ?
Reply: F

Task item: What did the test return for Cc1cc(SC#N)cc(C)c1O ?
Reply: T

###

# test description: NCI Yeast Anticancer Drug Screen. Data for the cln2 rad14 strain (AID 165);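 also: 0% = growth equal to vehicle treated cultures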
# cond: S. cerevisiae cln2 rad14 strain, at 5.0 µM (retest, dose inferred, filed as 0.5)
About 79,000 compounds went through this panel and 15% of them were active in at least one assay; those are over-represented in the sample as a whole. Calls of active or inactive are those of the source. Rule as the data show it: active = growth inhibition above about 70%; inactive = the rest.
The reply should name one outcome from active, inactive

Cc1cc(O)c2c(c1)C(=O)c1c(c(O)cc(O)c1-c1c(O)cc(O)c3c1C(=O)c1cc(C)cc(O)c1C3=O)C2=O: inactive

Task item: What did the test return for CN(C)CC(C)(C)/C(=N\Nc1ccccc1)c1ccccc1 ?
Reply: inactive

Task item: What did the test return for CCCCCCCN(CCCCCCC)CC(O)c1ccc2ccc3ccccc3c2c1 (stereo not drawn) ?
Reply: inactive

###

# test description: NCI Yeast Anticancer Drug Screen. Data for the mec2-1 strain (AID 157)
# cond: S. cerevisiae mec2-1 strain, at 50.0 µM (retest, dose inferred, filed as 5.0), stronger effect = higher value
About 79,000 compounds went through this panel and 15% of them were active in at least one assay; those are over-represented in the sample as a whole.
property measured: growth inhibition (%)
Please reply with the bare figure in % and do not write the unit itself.

Below, 3 molecules whose answers are already recorded.
Cc1nc2sc3c(c2c2nnnn12)CCCC3: 29
O=C(O)CC1(C(=O)O)CCCCC1: -1
COc1cccc(CC2N(S(=O)(=O)c3ccc(C)cc3)CCC23C(=O)Nc2ccccc23)c1OC (stereo unspecified): 96

Task item: Fill in: growth inhibition of CC(=O)N=C1N(/C=C2\C(=O)Oc3ccccc3C2=O)C(=O)/C(=C/c2ccco2)N1C is ___
Reply: 74

Task item: Fill in: growth inhibition of CC1CCC(C(C)C2C(O)CC3C4CC=C5CC(O)CCC5(C)C4CCC32C)NC1 (stereo unspecified) is ___
Reply: 18

Task item: Fill in: growth inhibition of COc1ccc(C2COc3cc(O)c(O)cc3C2)cc1 (stereo unspecified) is ___
Reply: 99

Task item: Fill in: growth inhibition of COCC1C(=O)c2cc3c(cc2C12C=CC1(C=C2)OCCO1)OCO3 (stereo unspecified) is ___
Reply: -7

Task item: Fill in: growth inhibition of C[n+]1c(-c2cccc(OCCCCCCCCOc3cccc(-c4c5cc(N)ccc5c5ccc(N)cc5[n+]4C)c3)c2)c2cc(N)ccc2c2ccc(N)cc21 is ___
Reply: 99

Task item: Fill in: growth inhibition of CCCNC(=O)OCc1ccc(NCCN(CC)CC)c2c(=O)c3ccccc3sc12 is ___
Reply: -6
